These data points were gathered from patent US11667667B2.

Target or system: Glutathione-S-transferase-labeled FXR human protein (Homo sapiens)
Construct: purchased Invitrogen
Sequence (Q96RI1 whole entry): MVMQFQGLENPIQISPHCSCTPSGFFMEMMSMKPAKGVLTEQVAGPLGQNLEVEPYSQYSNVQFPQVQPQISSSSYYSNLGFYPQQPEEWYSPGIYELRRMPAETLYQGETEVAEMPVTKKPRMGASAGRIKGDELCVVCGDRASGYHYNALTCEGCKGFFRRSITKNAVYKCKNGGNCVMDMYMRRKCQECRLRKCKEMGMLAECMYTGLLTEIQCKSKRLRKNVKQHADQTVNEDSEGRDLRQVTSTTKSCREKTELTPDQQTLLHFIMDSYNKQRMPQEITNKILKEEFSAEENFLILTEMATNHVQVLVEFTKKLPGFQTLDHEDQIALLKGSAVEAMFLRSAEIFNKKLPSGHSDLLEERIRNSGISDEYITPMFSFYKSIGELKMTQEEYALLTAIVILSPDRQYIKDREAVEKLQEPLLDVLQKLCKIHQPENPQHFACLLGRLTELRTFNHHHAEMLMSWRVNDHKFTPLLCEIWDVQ
Assay text: FXR biochemical experiment (AlphaScreen, coactivator recruitment)
Experimental setup: ratio of highest signal of the compound to that of the reference compound; read-out: FXR enzyme activity Efficacy
Observable: Emax (%)

{"Query smiles": "CC[C@H]1[C@@H](O)[C@@H]2[C@H](CC[C@]3(C)[C@@H]([C@H](C)CCn4ccc(C(=O)O)cc4=O)CC[C@@H]23)[C@@]2(C)CC[C@@H](O)C[C@@H]12", "Unit of measurement": "%", "Test result": 375}
{"Query smiles": "CC[C@H]1[C@@H](O)[C@@H]2[C@H](CC[C@]3(C)[C@@H]([C@H](C)CCOc4ccc(C(=O)NCC(=O)O)cn4)CC[C@@H]23)[C@@]2(C)CC[C@@H](O)C[C@@H]12", "Unit of measurement": "%", "Test result": 205}
{"Query smiles": "CC[C@H]1[C@@H](O)[C@@H]2[C@H](CC[C@]3(C)[C@@H]([C@H](C)CCOc4ccnc(C(=O)O)c4)CC[C@@H]23)[C@@]2(C)CC[C@@H](O)C[C@@H]12", "Unit of measurement": "%", "Test result": 127}

###

Target or system: FXR (FXR HEK 293T DA cell line) (Homo sapiens, UniProt Q96RI1)
Construct: expressed in transfected cells; host or cells: HEK 293T (FXR HEK 293T DA)
Sequence (Q96RI1 with tags, fused parts or gaps limits assumed): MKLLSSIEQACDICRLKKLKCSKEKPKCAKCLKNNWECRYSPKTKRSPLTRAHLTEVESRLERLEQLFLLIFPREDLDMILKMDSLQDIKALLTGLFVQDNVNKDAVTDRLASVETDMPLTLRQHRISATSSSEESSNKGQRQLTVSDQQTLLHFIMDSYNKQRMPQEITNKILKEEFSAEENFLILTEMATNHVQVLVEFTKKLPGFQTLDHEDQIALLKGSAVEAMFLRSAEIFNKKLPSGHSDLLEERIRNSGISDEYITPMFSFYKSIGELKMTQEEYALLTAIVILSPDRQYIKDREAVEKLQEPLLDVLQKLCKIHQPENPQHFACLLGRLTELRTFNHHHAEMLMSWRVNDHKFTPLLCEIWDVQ
Assay text: FXR cell experiment (β-lactamase reporter gene, GeneBLAzer);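 further: Emax relative to maximal signal of reference agonist chenodeoxycholic acid (CDCA)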
Type: cell-based
Experimental setup: HEK-293T; read-out: FXR cell activity Efficacy

{"Compound": "CC[C@@H]1C2C[C@H](O)CC[C@]2(C)[C@H]2CC[C@]3(C)[C@@H]([C@H](C)CCn4cc(C(=O)O)cn4)CC[C@H]3[C@@H]2[C@@H]1O (stereo partly drawn)", "Emax": "131%"}
{"Compound": "CC[C@H]1[C@@H](O)[C@@H]2[C@H](CC[C@]3(C)[C@@H]([C@H](C)CCOc4cncc(C(=O)O)c4)CC[C@@H]23)[C@@]2(C)CC[C@@H](O)C[C@@H]12", "Emax": "132%"}
{"Compound": "CC[C@H]1[C@@H](O)[C@@H]2[C@H](CC[C@]3(C)[C@@H]([C@H](C)CCOc4ccc(C(=O)O)nc4)CC[C@@H]23)[C@@]2(C)CC[C@@H](O)C[C@@H]12", "Emax": "138%"}

###

Known EC50 of a selection of molecules
Target or system: Glutathione-S-transferase-labeled FXR human protein (Homo sapiens)
Construct: purchased Invitrogen
Assay text: FXR biochemical experiment (AlphaScreen, coactivator recruitment)
Experimental setup: AlphaScreen, GST-FXR human protein + biotin-labeled steroid receptor coactivator; read-out: FXR enzyme activity EC50

{"Molecule": "CC[C@H]1[C@@H](O)[C@@H]2[C@H](CC[C@]3(C)[C@@H]([C@H](C)CCOc4ccc(C(=O)NCCS(=O)(=O)O)cn4)CC[C@@H]23)[C@@]2(C)CC[C@@H](O)C[C@@H]12", "EC50": "0.02 µM"}
{"Molecule": "CC[C@H]1[C@@H](O)[C@@H]2[C@H](CC[C@]3(C)[C@@H]([C@H](C)CCOc4cnccc4C(=O)O)CC[C@@H]23)[C@@]2(C)CC[C@@H](O)C[C@@H]12", "EC50": "0.39 µM"}
{"Molecule": "CC[C@H]1[C@@H](O)[C@@H]2[C@H](CC[C@]3(C)[C@@H]([C@H](C)CCN4CC(C(=O)O)CCC4=O)CC[C@@H]23)[C@@]2(C)CC[C@@H](O)C[C@@H]12 (stereo partly drawn)", "EC50": "0.9 µM"}
{"Molecule": "CC[C@H]1[C@@H](O)[C@@H]2[C@H](CC[C@]3(C)[C@@H]([C@H](C)CCOc4cccc(C(=O)O)c4)CC[C@@H]23)[C@@]2(C)CC[C@@H](O)C[C@@H]12", "EC50": "0.03 µM"}
{"Molecule": "CC[C@H]1[C@@H](O)[C@@H]2[C@H](CC[C@]3(C)[C@@H]([C@H](C)CCOc4ccc(C(=O)Nc5ccccc5)cn4)CC[C@@H]23)[C@@]2(C)CC[C@@H](O)C[C@@H]12", "EC50": "0.65 µM"}
{"Molecule": "CC[C@H]1[C@@H](O)[C@@H]2[C@H](CC[C@]3(C)[C@@H]([C@H](C)CCN4CCC[C@@H]4C(=O)O)CC[C@@H]23)[C@@]2(C)CC[C@@H](O)C[C@@H]12", "EC50": "1.46 µM"}
{"Molecule": "CC[C@H]1[C@@H](O)[C@@H]2[C@H](CC[C@]3(C)[C@@H]([C@H](C)/C=C/c4cccc(C(=O)O)c4)CC[C@@H]23)[C@@]2(C)CC[C@@H](O)C[C@@H]12", "EC50": "0.06 µM"}
{"Molecule": "CC[C@H]1[C@@H](O)[C@@H]2[C@H](CC[C@]3(C)[C@@H]([C@H](C)CCOc4cnc(C(=O)O)nc4)CC[C@@H]23)[C@@]2(C)CC[C@@H](O)C[C@@H]12", "EC50": "0.07 µM"}
{"Molecule": "CC[C@H]1[C@@H](O)[C@@H]2[C@H](CC[C@]3(C)[C@@H]([C@H](C)CCOc4cccnc4C(=O)O)CC[C@@H]23)[C@@]2(C)CC[C@@H](O)C[C@@H]12", "EC50": "0.31 µM"}

###

Assay text: Pharmacokinetics in mice administrated with single compound
Type: in vivo, mice (C57BL/6J)
Experimental setup: mouse, plasma; male C57BL/6J mice, oral 10 mg/kg

{"Query smiles": "CC[C@H]1[C@@H](O)[C@@H]2[C@H](CC[C@]3(C)[C@@H]([C@H](C)CCOc4cncc(C(=O)O)c4)CC[C@@H]23)[C@@]2(C)CC[C@@H](O)C[C@@H]12", "Unit of measurement": "h", "Tmax": 2}

###

Target or system: Glutathione-S-transferase-labeled FXR human protein (Homo sapiens)
Assay text: FXR biochemical experiment (AlphaScreen, coactivator recruitment)
Experimental setup: AlphaScreen, GST-FXR human protein + biotin-labeled steroid receptor coactivator; read-out: FXR enzyme activity EC50
pEC50: −log10 of the molar value.

{"Molecule": "CC[C@H]1[C@@H](O)[C@@H]2[C@H](CC[C@]3(C)[C@@H]([C@H](C)CCn4cc(C(=O)O)ccc4=O)CC[C@@H]23)[C@@]2(C)CC[C@@H](O)C[C@@H]12 [Example 5]", "pEC50": 7.05}
{"Molecule": "CC[C@H]1[C@@H](O)[C@@H]2[C@H](CC[C@]3(C)[C@@H]([C@H](C)CCCOc4ncc(C(=O)O)cc4Cl)CC[C@@H]23)[C@@]2(C)CC[C@@H](O)C[C@@H]12 [Example 40]", "pEC50": 7.35}
{"Molecule": "CC[C@H]1[C@@H](O)[C@@H]2[C@H](CC[C@]3(C)[C@@H]([C@H](C)CCN4CCC[C@H]4C(=O)O)CC[C@@H]23)[C@@]2(C)CC[C@@H](O)C[C@@H]12 [Example 3]", "pEC50": 5.58}
{"Molecule": "CC[C@H]1[C@@H](OC)[C@@H]2[C@H](CC[C@]3(C)[C@@H]([C@H](C)CCOCC45CC(C(=O)O)(C4)C5)CC[C@@H]23)[C@@]2(C)CC[C@@H](O)C[C@@H]12 [Example 14]", "pEC50": 6.14}
{"Molecule": "CC[C@H]1[C@@H](O)[C@@H]2[C@H](CC[C@]3(C)[C@@H]([C@H](C)CCc4cccc(C(=O)O)c4)CC[C@@H]23)[C@@]2(C)CC[C@@H](O)C[C@@H]12 [Example 19]", "pEC50": 6.82}

###

Assay text: Pharmacokinetics in mice administrated with single compound
Format: in vivo, mice (C57BL/6J)
Experimental setup: mouse, plasma; male C57BL/6J mice, oral 10 mg/kg vs intravenous 2 mg/kg
Observable: bioavailability (%)

{"Query smiles": "CC[C@H]1[C@@H](O)[C@@H]2[C@H](CC[C@]3(C)[C@@H]([C@H](C)CCOc4ccc(C(=O)O)cn4)CC[C@@H]23)[C@@]2(C)CC[C@@H](O)C[C@@H]12", "Observable": "bioavailability", "Unit of measurement": "%", "Test result": 34}

###

Target or system: UniProtKB Q96RI1
Assay text: FXR biochemical experiment (AlphaScreen, coactivator recruitment)
Experimental setup: AlphaScreen, GST-FXR human protein + biotin-labeled steroid receptor coactivator; read-out: FXR enzyme activity EC50
Let's look at some compounds and their measured EC50.

{"Query smiles": "CC[C@H]1[C@@H](O)[C@@H]2[C@H](CC[C@]3(C)[C@@H]([C@H](C)CC(=O)Nc4cncc(C(=O)O)c4)CC[C@@H]23)[C@@]2(C)CC[C@@H](O)C[C@@H]12", "EC50 (nM)": 1430}
{"Query smiles": "CC[C@H]1[C@@H](O)[C@@H]2[C@H](CC[C@]3(C)[C@@H]([C@H](C)CCOc4ccc(C(=O)OC)cn4)CC[C@@H]23)[C@@]2(C)CC[C@@H](O)C[C@@H]12", "EC50 (nM)": 330}
{"Query smiles": "CC[C@H]1[C@@H](O)[C@@H]2[C@H](CC[C@]3(C)[C@@H]([C@H](C)CCOc4ccc(C(=O)NS(=O)(=O)C5CC5)cn4)CC[C@@H]23)[C@@]2(C)CC[C@@H](O)C[C@@H]12", "EC50 (nM)": 7}
{"Query smiles": "CC[C@H]1[C@@H](O)[C@@H]2[C@H](CC[C@]3(C)[C@@H]([C@H](C)CCCn4cc(C(=O)O)ccc4=O)CC[C@@H]23)[C@@]2(C)CC[C@@H](O)C[C@@H]12", "EC50 (nM)": 600}
{"Query smiles": "CC[C@H]1[C@@H](O)[C@@H]2[C@H](CC[C@]3(C)[C@@H]([C@H](C)CCOc4ccc(C(=O)NS(=O)(=O)c5ccccc5)cn4)CC[C@@H]23)[C@@]2(C)CC[C@@H](O)C[C@@H]12", "EC50 (nM)": 27}
{"Query smiles": "CC[C@H]1[C@@H](O)[C@@H]2[C@H](CC[C@]3(C)[C@@H]([C@H](C)CCCOc4ccc(C(=O)O)cn4)CC[C@@H]23)[C@@]2(C)CC[C@@H](O)C[C@@H]12", "EC50 (nM)": 70}
{"Query smiles": "CC[C@H]1[C@@H](O)[C@@H]2[C@H](CC[C@]3(C)[C@@H]([C@H](C)CCOc4cc(C(=O)O)ccn4)CC[C@@H]23)[C@@]2(C)CC[C@@H](O)C[C@@H]12", "EC50 (nM)": 160}
